# SYSTEM_TESTED: Protein translocase subunit SecA (Escherichia coli (strain K12)) (UniProt P10408)
# Sequence (P10408 whole entry): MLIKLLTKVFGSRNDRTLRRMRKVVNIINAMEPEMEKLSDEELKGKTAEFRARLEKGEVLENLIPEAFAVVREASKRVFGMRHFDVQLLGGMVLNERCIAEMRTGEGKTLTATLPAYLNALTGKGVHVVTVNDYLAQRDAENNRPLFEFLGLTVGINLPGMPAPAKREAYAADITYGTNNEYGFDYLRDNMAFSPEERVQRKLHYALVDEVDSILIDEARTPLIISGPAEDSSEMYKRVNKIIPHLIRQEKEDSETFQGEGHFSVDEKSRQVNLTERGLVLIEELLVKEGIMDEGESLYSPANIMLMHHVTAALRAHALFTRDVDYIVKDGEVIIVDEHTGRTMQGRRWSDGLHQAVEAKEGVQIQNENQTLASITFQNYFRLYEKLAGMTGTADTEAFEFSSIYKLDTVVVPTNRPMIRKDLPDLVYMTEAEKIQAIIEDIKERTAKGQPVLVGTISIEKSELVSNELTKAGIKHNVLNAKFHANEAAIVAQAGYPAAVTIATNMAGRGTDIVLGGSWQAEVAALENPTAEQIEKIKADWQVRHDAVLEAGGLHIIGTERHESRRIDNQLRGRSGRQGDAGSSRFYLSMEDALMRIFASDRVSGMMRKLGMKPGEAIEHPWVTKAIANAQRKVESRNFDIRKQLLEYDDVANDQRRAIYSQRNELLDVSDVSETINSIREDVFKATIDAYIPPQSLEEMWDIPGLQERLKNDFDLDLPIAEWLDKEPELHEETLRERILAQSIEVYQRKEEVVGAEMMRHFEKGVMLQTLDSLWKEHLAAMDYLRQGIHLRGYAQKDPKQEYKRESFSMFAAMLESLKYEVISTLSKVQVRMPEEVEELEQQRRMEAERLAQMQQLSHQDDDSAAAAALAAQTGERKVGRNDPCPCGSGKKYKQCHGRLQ
# EXPERIMENTAL_DETAILS: Assay to Identify E. coli SecA ATPase Inhibitors
# Format: functional
# Set-up: scale not given: direction of the effect not stated beside the values
# EXPERIMENTAL_CONDITIONS: 30 µM
Results with a measured potency or affinity are listed apart.
Give Percent Effect for every item shown.

Worked cases, Percent Effect given:
COMPOUND	Percent Effect
Cc1cnn(CC2CN(Cc3cccc(OCC(N)=O)c3)CCO2)c1 (configuration not stated)	-3.33%
Cc1cnn(C2CN(CC(=O)Nc3cccnc3)C2)c1	-4.23%
Fc1cccc(CN2CCC(c3n[nH]c4ncccc34)CC2)c1F	-3.7%

# return Percent Effect for each item in the list
1. COc1cccc2cc(CNC(C)(C)C(=O)N3CCC(O)CC3)oc12
2. Cn1nc(C2CN(C(=O)c3cscn3)C2)c2nccnc21
3. O=C(c1ccncc1)N1CCC(c2nc(O)cc(-c3ccncc3)n2)C1 (configuration not stated)
4. Cc1nc(C2CCCN2Cc2nc(C)c(C)o2)no1 (configuration not stated)
5. Cc1ccc(N2CCCC(NCC(=O)NCC3CC3)C2)nn1 (configuration not stated)

1. -4.3%
2. -0.655%
3. -4.75%
4. -2.9%
5. -4.97%

###

# Organism: Homo sapiens
# EXPERIMENTAL_DETAILS: To identify inhibition of the IFN signalling (Jak-Stat) pathway via expression of an eGFP reporter gene under the control of an IFN-stimulated response element (ISRE) containing MxA promoter.
# Type: functional
# Parameters: scale not given: direction of the effect not stated beside the values
# EXPERIMENTAL_CONDITIONS: 30 µM
PROPERTY_NAME: Percent Effect

COMPOUND	OBSERVED_VALUE
CN(Cc1nccs1)c1nc(-c2ccccn2)nc2c1CCNCC2	11.4%
CC1CCN(Cn2nc(-c3ccc(F)cc3)oc2=O)CC1	33%

# return Percent Effect for each item in the list
1. CC(C)CCN1CN=C(NS(=O)(=O)c2ccc(F)cc2)NC1
2. Cc1cccc(OCCC(=O)NCC(C)(C)C(N)=O)c1
3. Cc1cnn(CC2CCCN2Cc2cc(=O)n3ccccc3n2)c1 (configuration not stated)
4. CCOc1ccc(S(=O)(=O)NCc2cccnc2N(C)C)cc1
5. CCc1cnc(CN(C)C2CCN(CCc3cccs3)C2)o1 (configuration not stated)

1: -4.88%; 2: -23.5%; 3: -16.2%; 4: 58.7%; 5: 2.05%

# return Percent Effect for each item in the list
1. CC(C)NC(=O)c1ccc2c(c1)nc1n2CCN(c2ccccc2)C1
2. CCn1c(N)nc2cc(C(=O)NCc3ccccc3Cl)cnc21
3. Cc1ccc(N2CC[C@H]3OCC[C@@]3(C(=O)NC(C)C)C2)nn1
4. CCC1CCCN(C(=O)Cc2csc(-c3ncccn3)n2)C1 (configuration not stated)
5. CCc1nc(CN(C)C2CCN(Cc3cnc(C)cn3)C2)no1 (configuration not stated)

1. -10.5%
2. 5.03%
3. 4.31%
4. 25.1%
5. 26.6%

###

# SYSTEM_TESTED: Arginase-2, mitochondrial (Homo sapiens)
# Sequence (whole entry): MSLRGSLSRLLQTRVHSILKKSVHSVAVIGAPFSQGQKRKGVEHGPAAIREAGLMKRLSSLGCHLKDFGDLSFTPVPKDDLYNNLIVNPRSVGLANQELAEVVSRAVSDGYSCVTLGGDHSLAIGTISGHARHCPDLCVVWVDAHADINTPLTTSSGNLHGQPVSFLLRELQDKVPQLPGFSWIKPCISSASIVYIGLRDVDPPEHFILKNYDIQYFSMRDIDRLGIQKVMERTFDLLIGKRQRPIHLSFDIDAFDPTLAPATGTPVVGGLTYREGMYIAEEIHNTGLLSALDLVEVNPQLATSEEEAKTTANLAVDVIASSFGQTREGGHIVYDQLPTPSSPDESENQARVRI
# EXPERIMENTAL_DETAILS: in vitro enzyme assay to detect the production of urea directly proportional to the activity of Arginase II; note: in the data most compounds retested in dose-response had high values
# Format: functional
# Design: scale not given: direction of the effect not stated beside the values
# EXPERIMENTAL_CONDITIONS: 33.3 µM
Give Percent Effect for every item shown.
Answers are plain numbers, in %.

Worked cases, Percent Effect given:
MOLECULE	UNIT_ABBREV	OBSERVED_VALUE
O=C(NCc1ccncc1)N(Cc1ccccc1F)C1CC1	%	51
Cn1cccc1CN1CCC2(CCCN(C(=O)Cc3cccnc3)C2)C1 (configuration not stated)	%	-4.52
Cc1ccc2c(c1)C1(CCNCC1)CN2C(=O)CN(C)C	%	1.59

# return Percent Effect for each item in the list
1. Cc1cc(C)n(C2CN(Cc3noc(-c4ccccc4)n3)C2)n1
2. O=C(CCNC(=O)C1CCCC1)NCc1ccccc1Cn1cncn1
3. CCc1nc(C(=O)N2CCN(C)CC2C)nn1-c1ccccc1Cl (configuration not stated)
4. CCN(c1ccc(C(=O)NCCCN2CCOCC2)cc1)S(=O)(=O)CC
5. COc1ccc(CNC(=O)Nc2cccnc2N2CCCC2)cc1O

[-5.52, -2.52, 0.36, 2.37, -7.62]

# return Percent Effect for each item in the list
1. Cc1ncc(CN2Cc3ccccc3O[C@]3(CC[C@H](CO)CC3)C2)cn1
2. CN(Cc1ccc(F)cc1)CC1(O)CCN(C(=O)c2cccn2C)C1 (configuration not stated)
3. CCc1nc(CC(=O)N2CCOCC2c2ncon2)cs1 (configuration not stated)

1: 0.696; 2: -4.43; 3: 1.29

Give the value of Percent Effect reported for the following: O=C(NCc1ccccn1)N(Cc1ccc(F)cc1F)C1CC1
-1.52
